Origin of measurements: patent US20240325555A1

Molecular target: T1, human LIV-1 (human, UniProt Q13433 29-755)
T1 construct: whole, on cells; also called H-LIV1
T1 sequence (looked up): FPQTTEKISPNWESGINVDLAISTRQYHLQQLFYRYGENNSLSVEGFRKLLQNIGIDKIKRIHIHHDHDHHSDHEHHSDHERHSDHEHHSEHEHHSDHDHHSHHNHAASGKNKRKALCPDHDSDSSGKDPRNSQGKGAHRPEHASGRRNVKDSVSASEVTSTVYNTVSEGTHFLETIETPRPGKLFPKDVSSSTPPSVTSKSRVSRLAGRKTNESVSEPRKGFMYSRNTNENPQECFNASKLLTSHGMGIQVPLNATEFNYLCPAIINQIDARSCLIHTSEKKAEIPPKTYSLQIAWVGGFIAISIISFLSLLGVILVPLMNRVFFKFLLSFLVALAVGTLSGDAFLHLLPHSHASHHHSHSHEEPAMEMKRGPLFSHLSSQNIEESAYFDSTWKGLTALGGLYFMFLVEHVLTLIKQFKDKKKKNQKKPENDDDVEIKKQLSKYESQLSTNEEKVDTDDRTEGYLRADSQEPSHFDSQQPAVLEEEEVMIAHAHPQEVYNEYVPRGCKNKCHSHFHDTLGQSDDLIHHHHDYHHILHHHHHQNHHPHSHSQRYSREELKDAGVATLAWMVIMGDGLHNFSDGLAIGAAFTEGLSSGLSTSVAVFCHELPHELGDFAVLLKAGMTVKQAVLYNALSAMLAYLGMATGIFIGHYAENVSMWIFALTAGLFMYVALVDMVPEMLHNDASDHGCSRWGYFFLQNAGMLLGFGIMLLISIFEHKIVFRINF
Experiment: FACS, human LIV-1 cells
Consider the following binders; for each one, report its Top (MFI).

290F10G10.p1.Z3 (antibody, V domains shown) VH: EVQLVQSGAEVKKPGASVKVSCKASGYTFTSYWIHWVRQAPGQGLEWMGTIYPGDADTRSTQKFKDRVTMTADTSTSTVYMELSSLRSEDTAVYYCARSLIHDDYDKYYFDYWGQGTTVTVSS VL: DIQMTQSPSSLSASVGDRVTITCKARQDINKYIAWYQHKPGKGPKLLIHYTSILQPGIPSRFSGSGSGRDYTFTISSLQPEDIATYYCLQYDYFFTFGGGTKVEIK ... 7600 MFI
290F10G10.p1.Z13 (antibody, V domains shown) VH: EVQLVQSGAEVKKPGASVKVSCKASGYTFTSYWIHWVRQAPGQGLEWIGTIYPGDADTRSTQKFKDKATVTADKSTSTVYMELSSLRSEDTAVYYCTRSLIHDDYDKYYFDYWGQGTTVTVSS VL: DIQMTQSPSSLSASVGDRVTITCKARQDINKYIAWYQQKPGKAPKLLIYYTSILQPGVPSRFSGSGSGRDYTFTISSLQPEDIATYYCLQYDYFFTFGGGTKVEIK ... 7630 MFI
290F10G10.p1.Z6 (antibody, V domains shown) VH: EVQLVQSGAEVKKPGASVKVSCKASGYTFTSYWIHWVRQAPGQGLEWMGTIYPGDADTRSTQKFKDRVTVTADKSTSTVYMELSSLRSEDTAVYYCARSLIHDDYDKYYFDYWGQGTTVTVSS VL: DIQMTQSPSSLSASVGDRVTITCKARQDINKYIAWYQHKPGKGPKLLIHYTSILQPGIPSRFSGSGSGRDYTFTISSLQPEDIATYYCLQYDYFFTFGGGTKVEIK ... 7420 MFI
290F10G10.p1.Z7 (antibody, V domains shown) VH: EVQLVQSGAEVKKPGASVKVSCKASGYTFTSYWIHWVRQAPGQGLEWIGTIYPGDADTRSTQKFKDKATVTADKSTSTVYMELSSLRSEDTAVYYCARSLIHDDYDKYYFDYWGQGTTVTVSS VL: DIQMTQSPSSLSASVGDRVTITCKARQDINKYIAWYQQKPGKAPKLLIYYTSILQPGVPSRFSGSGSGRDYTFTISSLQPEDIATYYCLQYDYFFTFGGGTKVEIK ... 7680 MFI

Form: binder = 290F10G10.p1.Z16 (antibody, V domains shown) VH: EIQLVQSGAEVKKPGASVKVSCKASGYTFTSYWIHWVREAPGQGLEWIGTIYPGDADTRSTQKFKDKATVTADKSTSTVYMELSSLRSEDTAVYYCTRSLIHDDYDKYYFDYWGQGTTVTVSS VL: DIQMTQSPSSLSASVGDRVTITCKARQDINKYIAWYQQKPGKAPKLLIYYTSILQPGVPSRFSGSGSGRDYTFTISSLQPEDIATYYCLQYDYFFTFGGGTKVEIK ; Top (MFI) = 7440 MFI
